Reported LC retention time values for the following compounds.
assay: RP, 50 × 0.5 mm, 2.7 µm, 35 °C, 0.01 mL/min, estimated dead time 0.62 min; A: water + 0.1% formic acid, pH 3; B: acetonitrile + 0.1% formic acid, pH 3; gradient (min/%B) 0/5 12/95 14/95 16/5; details: stereoisomer not certain

>  <compound>
O=c1oc2cc(O)ccc2c2ccccc12

>  <LC retention time (min)>
6.54

$$$$
>  <compound>
O=c1ccc2c(O)c3ccoc3cc2o1

>  <LC retention time (min)>
5.42

$$$$
>  <compound>
O=c1oc2cc(O)ccc2c2ccc(O)cc12

>  <LC retention time (min)>
5.33

$$$$
>  <compound>
O=c1c(-c2ccc(O)cc2)coc2cc(O)cc(O)c12

>  <LC retention time (min)>
6.06

$$$$
>  <compound>
COc1c(O)cc(C(=O)O)cc1OS(=O)(=O)O [4-O-methylgallic acid 3-O-sulfate]

>  <LC retention time (min)>
1.84

$$$$
>  <compound>
O=C(O)c1ccc(O)c(O)c1

>  <LC retention time (min)>
1.76

$$$$
>  <compound>
COc1cc(-c2oc3cc(O)cc(O)c3c(=O)c2O)ccc1O

>  <LC retention time (min)>
4.51

$$$$

---

experiment: RP, Agilent ZORBAX RRHD Eclipse Plus C18, 50 × 2.1 mm, 1.8 µm, 30 °C, 0.4 mL/min, estimated dead time 0.28 min; A: water + 0.1% formic acid, pH 3; B: acetonitrile + 0.1% formic acid, pH 3; gradient (min/%B) 0/1 5/10 8/25 9.1/99 10/99 12/99; conditions: stereoisomer not certain
property: LC retention time (min)

>  <compound>
O=C(O)c1ccccc1O [Salicylic acid]

>  <reading>
8.16

$$$$
>  <compound>
O=C(O)/C=C/c1cccc(O)c1 [m-Coumaric acid]

>  <reading>
7.99

$$$$
>  <compound>
COc1ccc(CCC(=O)O)cc1O [Dihydroisoferulic acid]

>  <reading>
5.06

$$$$
>  <compound>
O=C(O)CCc1ccc(O)c(OS(=O)(=O)O)c1 [Dihydrocaffeic acid-3-O-sulfate]

>  <reading>
2.83

$$$$
>  <compound>
COc1cccc(OS(=O)(=O)O)c1O [1-Methyl-pyrogallol-O-sulfate]

>  <reading>
1.96

$$$$
>  <compound>
Cc1ccc(OS(=O)(=O)O)c(O)c1 [4-Methylcatechol-1-O-sulfate]

>  <reading>
3.83

$$$$
>  <compound>
O=C(O)c1cc(O)cc(O)c1 [3,5-Dihydroxybenzoic acid]

>  <reading>
2.82

$$$$
>  <compound>
O=C(O)CCc1ccc(O)c(O)c1 [Dihydrocaffeic acid]

>  <reading>
2.11

$$$$
>  <compound>
O=C(O)c1cccc(O)c1O [2,3-Dihydroxybenzoic acid]

>  <reading>
3.99

$$$$
